# target: Mitogen-activated protein kinase kinase kinase 5 (Homo sapiens)
# assay_text: Inhibition of human ASK1 expressed in HEK293 cells assessed as inhibition of H2O2-induced JNK phosphorylation preincubated for 30 mins followed by H2O2 addition measured after 30 mins by ELISA
readout_name: EC50 (nM)

[[record]]
query_smiles = "CC(C)n1cnnc1-c1cccc(N2Cc3ccc(OC[C@@H]4CN(C)CCO4)cc3C2=O)n1"
readout_value = 6.31

[[record]]
query_smiles = "COCCOc1ccc2c(c1)C(=O)N(c1cccc(-c3nncn3C(C)C)n1)C2"
readout_value = 15.8


(a) CC(C)Oc1ccc2c(c1)C(=O)N(c1cccc(-c3nncn3C(C)C)n1)C2
(b) COCCOc1ccc2c(c1)C(=O)N(c1cccc(-c3nncn3[C@H](C)CO)n1)C2
(c) CC(C)Oc1ccc2c(c1)C(=O)N(c1cccc(-c3nncn3[C@H](C)CO)n1)C2
List from greatest to least EC50. Answer by writing out the labels in the requested order. a, b, c
(a: 31.6 nM, b: 12.6 nM, c: 6.31 nM)

====

# assay_text: Intrinsic clearance in rat liver microsomes at 1 uM up to 30 mins in presence of NADPH by UPLC-MS/MS analysis
# Type: ADME
# conditions: read-out: CLH
readout_name: CLint scaled at 1 µM

Look at this molecule and give its reported CLint scaled at 1 µM. CC(C)Oc1ccc2c(c1)C(=O)N(c1cccc(-c3nncn3[C@H](C)CO)n1)C2 < 16.6 mL/min/kg

====

# target: Mitogen-activated protein kinase kinase kinase 5 (Homo sapiens, UniProt Q99683)
# Sequence (Q99683 whole entry, the tested form may be a part): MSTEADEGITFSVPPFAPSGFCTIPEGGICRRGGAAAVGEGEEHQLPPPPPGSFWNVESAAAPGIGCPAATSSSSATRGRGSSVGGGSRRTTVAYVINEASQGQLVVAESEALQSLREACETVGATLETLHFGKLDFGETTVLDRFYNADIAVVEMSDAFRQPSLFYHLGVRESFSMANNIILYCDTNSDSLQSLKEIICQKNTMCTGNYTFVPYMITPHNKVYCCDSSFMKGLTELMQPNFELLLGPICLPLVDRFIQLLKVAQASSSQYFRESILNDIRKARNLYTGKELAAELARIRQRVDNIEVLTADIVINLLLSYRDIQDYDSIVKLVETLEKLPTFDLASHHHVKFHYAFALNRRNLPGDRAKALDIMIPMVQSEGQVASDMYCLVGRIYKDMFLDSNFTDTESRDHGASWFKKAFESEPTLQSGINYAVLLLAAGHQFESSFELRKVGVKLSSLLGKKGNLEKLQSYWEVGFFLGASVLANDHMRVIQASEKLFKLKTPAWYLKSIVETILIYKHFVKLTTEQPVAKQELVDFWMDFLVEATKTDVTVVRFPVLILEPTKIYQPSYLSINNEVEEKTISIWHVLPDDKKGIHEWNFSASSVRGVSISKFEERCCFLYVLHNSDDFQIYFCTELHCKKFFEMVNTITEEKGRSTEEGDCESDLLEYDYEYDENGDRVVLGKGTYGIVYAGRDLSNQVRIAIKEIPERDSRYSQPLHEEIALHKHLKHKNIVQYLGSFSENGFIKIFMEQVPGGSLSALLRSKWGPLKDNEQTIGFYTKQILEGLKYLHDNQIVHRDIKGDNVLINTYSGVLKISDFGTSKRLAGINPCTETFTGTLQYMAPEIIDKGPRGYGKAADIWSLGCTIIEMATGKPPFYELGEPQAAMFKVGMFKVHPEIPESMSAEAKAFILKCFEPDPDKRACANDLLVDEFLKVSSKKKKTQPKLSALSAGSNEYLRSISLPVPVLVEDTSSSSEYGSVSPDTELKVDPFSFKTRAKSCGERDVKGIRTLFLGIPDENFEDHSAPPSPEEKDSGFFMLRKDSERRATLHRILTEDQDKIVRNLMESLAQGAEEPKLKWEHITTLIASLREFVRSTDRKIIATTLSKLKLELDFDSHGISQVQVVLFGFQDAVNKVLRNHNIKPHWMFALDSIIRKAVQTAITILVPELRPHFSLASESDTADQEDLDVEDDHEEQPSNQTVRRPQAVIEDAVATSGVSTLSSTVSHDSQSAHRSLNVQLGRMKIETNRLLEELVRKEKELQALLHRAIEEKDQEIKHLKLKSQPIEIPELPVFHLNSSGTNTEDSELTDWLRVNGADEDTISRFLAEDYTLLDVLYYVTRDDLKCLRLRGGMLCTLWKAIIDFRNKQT
# assay_text: Inhibition of recombinant human N-terminal GST-tagged ASK1 catalytic domain (654 to 971 residues) expressed in baculovirus infected sf21 cells using STK3 as substrate after 60 mins by HTRF assay
readout_name: IC50 (nM)

[[record]]
compound = "CC[C@@H](C)n1cnnc1-c1cccc(N2Cc3ccccc3C2=O)n1"
readout_name = "IC50"
readout_value = 50.1

[[record]]
compound = "C[C@H](CO)n1cnnc1-c1cccc(N2Cc3ccccc3C2=O)n1"
readout_name = "IC50"
readout_value = 10

[[record]]
compound = "Cc1cc(F)c(C(=O)Nc2ccccn2)cc1-n1cnc(C2CC2)c1"
readout_name = "IC50"
readout_value = 6310

[[record]]
compound = "CC(CC#N)n1cnnc1-c1cccc(N2Cc3ccccc3C2=O)n1 (stereo unspecified)"
readout_name = "IC50"
readout_value = 20

[[record]]
compound = "COCCOc1ccc2c(c1)C(=O)N(c1cccc(-c3nncn3[C@H](C)CO)n1)C2"
readout_name = "IC50"
readout_value = 7.94


(A) CC(CCO)n1cnnc1-c1cccc(N2Cc3ccccc3C2=O)n1 (stereo unspecified)
(B) CC(C)Oc1ccc2c(c1)C(=O)N(c1cccc(-c3nncn3C(C)C)n1)C2
Pick the one with the larger IC50: A vs B Return value: the label identifying the chosen record. A

(a) CC(C)n1cnnc1-c1cccc(N2Cc3ccccc3C2=O)n1
(b) C[C@@H](CO)n1cnnc1-c1cccc(N2Cc3ccccc3C2=O)n1
(c) Cc1ccc(C(=O)Nc2cccc(-c3nncn3C(C)C)n2)c(F)c1
Please order the records by their reported IC50, lowest number first. Write the labels out in the order the request specifies. a, b, c
(a: 12.6 nM, b: 31.6 nM, c: 50.1 nM)

====

# assay_text: Intrinsic clearance in human liver microsomes at 1 uM up to 30 mins in presence of NADPH by UPLC-MS/MS analysis
# Assay type: ADME
# conditions: read-out: CLH
readout_name: CLint scaled at 1 µM

I am curious: what CLint scaled at 1 µM value has been reported for CC(C)Oc1ccc2c(c1)C(=O)N(c1cccc(-c3nncn3[C@H](C)CO)n1)C2 ? < 8.3 mL/min/kg

====

# target: Mitogen-activated protein kinase kinase kinase 5 (Homo sapiens, UniProt Q99683)
# assay_text: Inhibition of recombinant human N-terminal GST-tagged ASK1 catalytic domain (654 to 971 residues) expressed in baculovirus infected sf21 cells using STK3 as substrate after 60 mins by HTRF assay
pIC50: −log10 of the molar value.
readout_name: pIC50

[[record]]
molecule = "CC(C)n1cnnc1-c1cccc(N2Cc3ccc(OC[C@@H]4CN(C)CCO4)cc3C2=O)n1"
readout_name = "pIC50"
readout_value = 8.20


(a) CC(CF)n1cnnc1-c1cccc(N2Cc3ccccc3C2=O)n1 (stereo not given)
(b) CC[C@H](C)n1cnnc1-c1cccc(N2Cc3ccccc3C2=O)n1
Of a and b , whose reported pIC50 is numerically smaller? In your reply, give the label of the chosen option. b
(b: 7.70, a: 7.90)

(a) O=C1c2ccccc2CN1c1cccc(-c2nncn2CC2CCO2)n1 (stereo not given)
(b) CC(C)Oc1ccc2c(c1)C(=O)N(c1cccc(-c3nncn3[C@H](C)CO)n1)C2
pIC50 comparison. Which is larger, a or b ? Answer by stating the label of the chosen item. b
(b: 8.30, a: 6.10)

====

# System: MDR1 (human)
# assay_text: Apparent permeability from basolateral to apical side in pig LLC-PK1 cells expressing human MDR1 at 10 uM after 2 hrs by LC-MS/MS analysis
# Assay type: ADME, cell-based, Sus scrofa
readout_name: Papp B→A at 2 h, 10 µM (×10⁻⁶ cm/s)
Answer format: numeric, ×10⁻⁶ cm/s implied, no suffix.

Requested field: Papp B→A at 2 h, 10 µM. Item: CC(C)Oc1ccc2c(c1)C(=O)N(c1cccc(-c3nncn3[C@H](C)CO)n1)C2 26.2

====

# Test system: MDR1 (human)
# assay_text: Apparent permeability from apical to basolateral side in pig LLC-PK1 cells expressing human MDR1 at 10 uM after 2 hrs by LC-MS/MS analysis
# Format: ADME, cell-based, Sus scrofa
readout_name: Papp A→B at 2 h, 10 µM (×10⁻⁶ cm/s)
A number alone suffices; assume ×10⁻⁶ cm/s.

Entry CC(C)Oc1ccc2c(c1)C(=O)N(c1cccc(-c3nncn3[C@H](C)CO)n1)C2 , system MDR1 (human): what Papp A→B at 2 h, 10 µM was measured? 5.49
